Would you mind telling me the reported inhibition of each entry?
- Assayed System: 6-phosphogluconate dehydrogenase, decarboxylating (Homo sapiens)
- Test Name: 6PGD enzyme inhibitors, primary screen, biochemical, human, recombinant enzyme, NADPH absorbance (AID 1159550)
- Applied Conditions: recombinant 6PGD, NADPH absorbance 341 nm; at 10 µM; hits give high values
Give a bare numeral; the unit % is implied.

Q: Requested field: inhibition. Item: CO[C@H]1/C=C/O[C@@]2(C)Oc3c(C)c(O)c4c(O)c(c5c(nc6cc(C)ccn65)c4c3C2=O)NC(=O)/C(C)=C\C=C\[C@H](C)[C@H](O)[C@@H](C)C(O)[C@@H](C)[C@H](OC(C)=O)[C@@H]1C (stereo partly drawn)
Result: -0.37

Q: Same again, this time with O=C(O)CCc1nc(-c2ccccc2)c(-c2ccccc2)o1
Result: -3.27

Q: Same again, this time with COc1cc(OC)c2c(=O)cc(-c3ccccc3)oc2c1
Result: 13.7

Q: Same again, this time with COc1ccc(-c2coc3cc(O)ccc3c2=O)cc1
Result: -6.94

Q: Same again, this time with CC(C)[C@@H](C)/C=C/[C@@H](C)[C@H]1CC[C@H]2C3=CCC4CC(=O)CC[C@]4(C)[C@H]3CC[C@]12C (stereo partly drawn)
Result: 2.32

Q: Same again, this time with CCCCC(CC)COC(=O)COc1cc(Cl)c(Cl)cc1Cl (stereo not drawn)
Result: 4.06

Q: Same again, this time with CC1=C[C@@H]2[C@@H](CC1)[C@](C)(O)CC[C@H]2C(C)C
Result: 9.65

Q: Same again, this time with C[C@@H]1CC[C@H]2C(C)(C)[C@H]3C[C@@]12CC[C@@]3(C)O
Result: 1.71

Q: Same again, this time with CC(C)CCCC(C)[C@H]1CCC2C3CC=C4CC(=O)CC[C@]4(C)C3CC[C@@]21C (stereo partly drawn)
Result: 11.7

Q: Same again, this time with CC1(C)S[C@@H]2[C@H](NC(=O)Cc3ccccc3)C(=O)N2[C@H]1C(=O)O
Result: 1.35

Q: Same again, this time with C=C1C[C@]23C[C@@]1(O)CC[C@H]2[C@@]12C=C[C@H](O)[C@@](C)(C(=O)O1)[C@H]2[C@@H]3C(=O)O
Result: -0.284

Q: Same again, this time with NC(=O)NCCC[C@H](N)C(=O)O
Result: 15.5

Q: Same again, this time with CC[C@H](C(=O)[C@@H](C)[C@@H](O)[C@H](C)[C@@H]1O[C@@H]([C@@H](CC)C(=O)O)CC[C@@H]1C)[C@H]1O[C@]2(C=C[C@@H](O)[C@]3(CC[C@@](C)([C@H]4CC[C@](O)(CC)[C@H](C)O4)O3)O2)[C@H](C)C[C@@H]1C
Result: 2.61

Q: Same again, this time with C=CC(C1=CC(=O)C(OC)=CC1=O)c1ccc(OC)cc1 (stereo not drawn)
Result: 9.18

Q: Same again, this time with CC(=O)C1CCC2C3CC=C4CC(O)CCC4(C)C3CCC12C (stereo not drawn)
Result: -15.3

Q: Same again, this time with COc1ccc2c(c1)O[C@@H]1COc3cc(OC)c(OC)cc3[C@@H]1C2=O
Result: -2.95

Q: Same again, this time with COc1ccc2c(c1)OCC(Cc1ccc(OC)c(O)c1)C2=O (stereo not drawn)
Result: 13.3

Q: Same again, this time with N[C@@H](Cc1c[nH]c2ccccc12)C(=O)O
Result: 3.98
